Cited source for all entries: PubChem BioAssay (NCI)

Experiment: NCI Yeast Anticancer Drug Screen. Data for the bub3 strain (AID 167)
Settings: S. cerevisiae bub3 mutant strain, at 50.0 µM, stronger effect = higher value
About 79,000 compounds went through this panel and 15% of them were active in at least one assay; those are over-represented in the sample as a whole.
I'd appreciate it if you could supply growth inhibition values for the items below.
# unit: % | format: bare number

Fill blank: measured growth inhibition of the molecule [N-]=[N+]=NC(=O)c1cnn(-c2ccccc2)c1N is ____.
14.6

Value lookup for growth inhibition; key = CCCCCCCCCO/N=C\c1c2c(O)c3c(O)c(C)c4c(c3c1O)C(=O)C(C)(O/C=C\C(OC)C(C)C(OC(C)=O)C(C)C(O)C(C)C(O)C(C)/C=C\C=C(\C)C(=O)N2)O4 (stereo unspecified)
-6.6

Fill blank: measured growth inhibition of the molecule CCCCCCc1ccc2c3cccc4cccc(c5cccc1c52)c43 is ____.
-11.1

Value lookup for growth inhibition; key = CC(=O)OC1CCC2(C)C(CCC3C2CCC2(C)C3CCC2C(C)(C)O)C1 (stereo unspecified)
-2.45

# input molecule: c1ccc2c(c1)cnc1cc3c(cc12)ncc1ccccc13 ; wanted: its growth inhibition
-6.45

So what's the measured growth inhibition for this one? O=C(Nc1ccc(C(=O)CCl)cc1)Nc1ccc(C(=O)CCl)cc1
12.9

Which value of growth inhibition has been reported for COc1ccccc1NC(=S)N/N=C/c1cccc(C)n1 in the records?
5.5

Could you tell me which growth inhibition is on file for COc1ccc2c(c1)CC/C(=C\C1(Sc3ccccc3)CC1)C2O (stereo unspecified) ?
-10.7

Quick check: growth inhibition of CC(NC1=CC(=O)c2cccnc2C1=O)C(O)c1ccccc1 (stereo unspecified) ?
64.2

What measured growth inhibition goes with CC(=O)C(CCN(C)C)(c1ccccc1)C1CCCCC1 (stereo unspecified) ?
-10.5

growth inhibition lookup needed for CCCC(=O)OCc1ccc(Cl)cc1 , thanks.
6.55

Requested read-out: growth inhibition. Entry: Cc1cc(OC(=O)c2ccccc2)c(C)c(C)c1OC(=O)c1ccccc1
8.4

Can you look up the measured growth inhibition of Nc1nc2ccc3ccccc3c2c(=O)[nH]1 for me?
-15.6

Fill in: growth inhibition of COc1cc(CCCCC(=O)O)ccc1OC(=O)c1ccccc1 is ___
-6.3

Which measured growth inhibition value corresponds to CCCCCCNC(CC(N)=O)C(=O)O (stereo unspecified) ?
-12.8

Query (molecule): Nc1c(S(N)(=O)=O)cc(S(N)(=O)=O)cc1S(N)(=O)=O ; field requested: growth inhibition
-29.2
